- systemTested: T1, Human CD3eg linker (human)
- T1 construct: Single-chain construct; also called recombinant human CD3
- T1 chain: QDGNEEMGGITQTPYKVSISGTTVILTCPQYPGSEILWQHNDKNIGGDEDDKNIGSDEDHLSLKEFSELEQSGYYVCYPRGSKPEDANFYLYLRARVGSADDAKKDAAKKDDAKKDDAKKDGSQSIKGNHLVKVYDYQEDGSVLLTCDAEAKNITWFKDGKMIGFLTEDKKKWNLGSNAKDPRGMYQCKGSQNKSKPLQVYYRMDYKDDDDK
- assayOverview: SPR; fold vs parent H183/L072

{"binder": "H183/L072 VL T92F (antibody, name in Kabat numbering, V domains shown) VH: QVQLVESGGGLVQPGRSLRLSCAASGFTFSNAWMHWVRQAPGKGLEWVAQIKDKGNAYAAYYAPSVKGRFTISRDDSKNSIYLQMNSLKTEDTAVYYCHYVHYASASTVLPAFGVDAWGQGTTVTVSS VL: DIVMTQSPLSLPVTPGEPASISCQASQELVHMNRNTYLHWYQQKPGQAPRLLIYKVSNRFPGVPDRFSGSGSGTDFTLKISRVEAEDVGVYYCAQGFSVPFTFGQGTKLEIK", "measurementUnit": "fold", "fold change of affinity": 0.3}
{"binder": "H183/L072 VL L27bE (antibody, name in Kabat numbering, V domains shown) VH: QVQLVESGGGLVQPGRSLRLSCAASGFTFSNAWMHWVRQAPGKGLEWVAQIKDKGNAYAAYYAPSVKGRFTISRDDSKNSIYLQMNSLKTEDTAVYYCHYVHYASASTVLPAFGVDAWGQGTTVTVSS VL: DIVMTQSPLSLPVTPGEPASISCQASQEEVHMNRNTYLHWYQQKPGQAPRLLIYKVSNRFPGVPDRFSGSGSGTDFTLKISRVEAEDVGVYYCAQGTSVPFTFGQGTKLEIK", "measurementUnit": "fold", "fold change of affinity": 0}
